# target_desc: T1, PUF4 RNA-binding domain (Saccharomyces cerevisiae, UniProt P25339 537-888)
# T1 sequence: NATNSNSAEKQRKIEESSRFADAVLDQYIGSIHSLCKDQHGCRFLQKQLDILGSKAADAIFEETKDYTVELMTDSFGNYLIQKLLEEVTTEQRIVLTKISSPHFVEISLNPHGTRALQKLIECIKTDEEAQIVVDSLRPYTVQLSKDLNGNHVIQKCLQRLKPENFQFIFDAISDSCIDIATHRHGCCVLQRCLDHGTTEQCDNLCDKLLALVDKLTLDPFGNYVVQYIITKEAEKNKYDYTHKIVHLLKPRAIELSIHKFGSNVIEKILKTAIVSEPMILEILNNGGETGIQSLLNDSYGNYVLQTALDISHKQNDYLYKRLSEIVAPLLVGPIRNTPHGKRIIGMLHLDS
# method_summary: Mg; RNA-MaP; 20 mM Na-HEPES pH 7.4, 30 mM KOAc, 0.75 mM MgCl2, 0.1% Tween-20, 5% glycerol, 0.1 mg/mL BSA, 2 mM DTT; 25 C; 0.0125-409.6 nM protein
# stated_conditions: tags: N-His6-TEV cleaved; C-SNAP kept, Cy3B-labelled; label: tethered on chip by stalled RNA polymerase
Consider the following partition of reported Kd into named classes: bottom bin (below 4 nM), middle bin (4 nM to below 80 nM), top bin (80 nM or more)

Example results:
UCUCUUUGUAUUAUCUUCUCUU (ssRNA) [Ic_S1_P5E.1_K5.1_C5.1_H5.1_A5.1_F5.1_[T9C]_[A10T]_T5.1]: middle bin
UCUCUUCAUAUAUUAUUAGGUCUCUU (ssRNA) [Id_ii_S1_P5E.3_K5.2_C5.2_[T-1A]_H5.2_A5.1_F5.1_T5.2_[T11G]_[A12G]]: top bin
Ic_S2_P4E.1_K4.1_C4.1_H4.1_A4.1_[T5A]_[A6T]_[T7A]_F4.1_[A9G]_T4.1 (ssRNA) RNA: UUUGAUUAAUAUGAUAUCGUUCUUUCUUGUAAUAUGUUCUUUCUCGAUAUCAUAUUAAUCUUU: middle bin
Ie_S2_P5E.1_K5.1_C5.1_H5.1_[+4CCCTT]_A5.1_F5.1_T5.1 (ssRNA) RNA: UUUGAUUAAUAUGAUAUCGUUCUUUCUUGUACCCUUUUAUUAUUCUUUCUCGAUAUCAUAUUAAUCUUU: middle bin
Id_i_S2_P3E.7_K3.3_C3.3_[T-3C]_[C-2A]_[T-1A]_H3.3_A3.1_F3.1_T3.2 (ssRNA) RNA: UUUGAUUAAUAUGAUAUCGUUCUUUCUCAAACACUAUAUAUUCUUUCUCGAUAUCAUAUUAAUCUUU: top bin
UCUCUUUGUAUUUAAUUCUCUU (ssRNA) [Ic_S1_P5E.1_K5.1_C5.1_H5.1_A5.1_[A7T]_F5.1_[T8A]_[T9A]_[A10T]_T5.1]: middle bin

As a next step, examine the binder that follows.
The entry to classify is Ie_S2_P3E.2_K3.1_C3.2_[+-1CCTC]_H3.1_A3.1_F3.1_T3.2 (ssRNA) RNA: UUUGAUUAAUAUGAUAUCGUUCUUUCUCUCCUCUGUAUAUAUAUUCUUUCUCGAUAUCAUAUUAAUCUUU ; which class holds it? bottom bin
